# targetSystem: Human neutrophil elastase (Homo sapiens (Human), UniProt P08246)
# Sequence (P08246 30-247): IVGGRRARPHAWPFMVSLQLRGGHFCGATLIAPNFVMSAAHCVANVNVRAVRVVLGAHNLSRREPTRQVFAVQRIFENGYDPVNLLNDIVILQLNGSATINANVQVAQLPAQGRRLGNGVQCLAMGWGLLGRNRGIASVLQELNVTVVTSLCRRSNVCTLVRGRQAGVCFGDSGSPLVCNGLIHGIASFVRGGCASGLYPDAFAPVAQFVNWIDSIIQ
# protocolDescription: Human Neutrophil Elastase Assay
# testSettings: substrate MeOSuc-Ala-Ala-Pro-Val-AMC 250 μM, pH 7.5, room temperature

# compound, IC50 / nM
rows = [
    ("CN1CCC2=C(C1=O)C(c1ccc(C#N)cc1-c1cncnc1)N(C)C(=O)N2c1cccc(C(F)(F)F)c1 (stereo not drawn) [Example 36.3]", 1.1),
    ("N#Cc1ccc(C2NC(=O)N(c3cccc(C(F)(F)F)c3)C3=C2C(=O)NCC3)cc1 (racemic) [Example 1]", 5.7),
    ("CN1CCC2=C(C1=O)[C@H](c1ccc(C#N)cc1)NC(=O)N2c1cccc(C(F)(F)F)c1 [Example 4B]", 1900),
]

====

# protocolDescription: Drug transport across human Caco-2 cells
# Assay type: in vitro ADME
# testSettings: human; apical-to-basal, Caco-2 monolayers, pH 7.2, 37° C.; read-out: PEAB

# compound, Papp A→B at 10 µM
rows = [
    ("CN1C(=O)N(c2cccc(C(F)(F)F)c2)C2=C(C(=O)NCC2)C1c1ccc(C#N)cc1S(C)(=O)=O (stereo not drawn)", "17 ×10⁻⁶ cm/s"),
    ("CN1CCC2=C(C1=O)[C@@H](c1ccc(C#N)cc1)NC(=O)N2c1cccc(C(F)(F)F)c1", "17 ×10⁻⁶ cm/s"),
    ("CN1C(=O)N(c2cccc(C(F)(F)F)c2)C2=C(C(=O)NCC2)[C@H]1c1ccc(C#N)cc1CO [Example 32A]", "6.9 ×10⁻⁶ cm/s"),
    ("CN1CCC2=C(C1=O)C(c1ccc(C#N)cc1-c1ccc(=O)n(C)n1)N(C)C(=O)N2c1cccc(C(F)(F)F)c1 (stereo not drawn)", "6 ×10⁻⁶ cm/s"),
    ("CN1CCC2=C(C1=O)C(c1ccc(C#N)cc1CO)N(C)C(=O)N2c1cccc(C(F)(F)F)c1 (stereo not drawn)", "24 ×10⁻⁶ cm/s"),
    ("N#Cc1ccc([C@H]2NC(=O)N(c3cccc(C(F)F)c3)C3=C2C(=O)NCC3)cc1", "4.7 ×10⁻⁶ cm/s"),
    ("CN1CCC2=C(C1=O)C(c1ccc(C#N)cc1-c1cnco1)N(C)C(=O)N2c1cccc(C(F)(F)F)c1 (stereo not drawn)", "32 ×10⁻⁶ cm/s"),
    ("CN1C(=O)N(c2cccc(C(F)(F)F)c2)C2=C(C(=O)NCC2)[C@H]1c1ccc(C#N)cc1", "37 ×10⁻⁶ cm/s"),
    ("COC(=O)CN1C(=O)N(c2cccc(C(F)(F)F)c2)C2=C(C(=O)NCC2)C1c1ccc(C#N)cc1 (stereo not drawn)", "6.1 ×10⁻⁶ cm/s"),
]

====

# targetSystem: Human neutrophil elastase (Homo sapiens (Human))
# protocolDescription: Human Neutrophil Elastase Assay
# testSettings: substrate MeOSuc-Ala-Ala-Pro-Val-AMC 250 μM, pH 7.5, room temperature
pIC50: −log10 of the molar value.

# molecule, pIC50
records = [
    ("CN1C(=O)N(c2cccc(C(F)(F)F)c2)C2=C(C(=O)NCC2)C1c1ccc(C#N)cc1Br (stereo not shown)", "> 9.00"),
    ("CN1C(=O)N(c2cccc(C(F)(F)F)c2)C2=C(C(=O)NCC2)[C@H]1c1ccc(C#N)cc1CO [Example 32A]", "> 9.00"),
    ("CN1C(=O)N(c2cccc(C(F)(F)F)c2)C2=C(C(=O)NCC2)[C@H]1c1ccc(C#N)cc1-c1cnn(C)c1 [Example 31A]", "> 9.00"),
    ("N#Cc1ccc([C@@H]2NC(=O)N(c3cccc(C(F)F)c3)C3=C2C(=O)NCC3)cc1", "< 5.00"),
    ("CN1C(=O)N(c2cccc(C(F)(F)F)c2)C2=C(C(=O)NCC2)C1c1ccc(C#N)cc1-c1cccnc1 (stereo not shown)", "> 9.00"),
    ("N#Cc1ccc(C2C3=C(CCNC3=O)N(c3cccc(C(F)(F)F)c3)C(=O)N2CC(=O)N2CC3CC3C2)cc1 (stereo not shown)", "> 9.00"),
    ("CNC(=O)N1C(=O)N(c2cccc(C(F)(F)F)c2)C2=C(C(=O)NCC2)C1c1ccc(C#N)cc1 (stereo not shown)", "> 9.00"),
    ("CN1C(=O)N(c2cccc(C(F)(F)F)c2)C2=C(C(=O)NCC2)C1c1ccc(C#N)cc1CO (racemic)", "> 9.00"),
    ("CN1CCC2=C(C1=O)C(c1ccc(C#N)cc1-c1cnco1)N(C)C(=O)N2c1cccc(C(F)(F)F)c1 (stereo not shown)", "> 9.00"),
    ("CN1C(=O)N(c2cccc(C(F)(F)F)c2)C2=C(C(=O)NCC2)C1c1ccc(C#N)cc1-c1cnn(C)c1 (racemic)", "> 9.00"),
    ("CN1C(=O)N(c2cccc(C(F)(F)F)c2)C2=C(C(=O)NCC2)C1c1ccc(C#N)cc1C(F)(F)F (stereo not shown)", "> 9.00"),
    ("CN1C(=O)N(c2cccc(C(F)(F)F)c2)C2=C(C(=O)NCC2)[C@H]1c1ccc(C#N)cc1", "> 9.00"),
    ("N#Cc1ccc(C2C3=C(CCNC3=O)N(c3cccc(C(F)(F)F)c3)C(=O)N2C(=O)NCCO)cc1 (stereo not shown)", "> 9.00"),
    ("CN1CCC2=C(C1=O)C(c1ccc(C#N)cc1-c1cnn(C)c1)N(C)C(=O)N2c1cccc(C(F)(F)F)c1 (stereo not shown)", "> 9.00"),
    ("CN1C(=O)N(c2cccc(C(F)F)c2)C2=C(C(=O)NCC2)[C@H]1c1ccc(C#N)cc1", "> 9.00"),
    ("Cn1cc(-c2cc(C#N)ccc2C2NC(=O)N(c3cccc(C(F)(F)F)c3)C3=C2C(=O)NCC3)cn1 (stereo not shown)", "> 9.00"),
]

====

Below, each entry is listed with its recorded Papp B→A at 10 µM.
# protocolDescription: Drug transport across human Caco-2 cells
# Format: in vitro ADME
# testSettings: human; basal-to-apical, Caco-2 monolayers, pH 7.2, 37° C.; read-out: PEBA

# compound, Papp B→A at 10 µM [×10⁻⁶ cm/s]
measured = [
    ("N#Cc1ccc([C@H]2NC(=O)N(c3cccc(C(F)F)c3)C3=C2C(=O)NCC3)cc1 [Example 2A]", 31),
    ("CN1C(=O)N(c2cccc(C(F)(F)F)c2)C2=C(C(=O)NCC2)C1c1ccc(C#N)cc1-c1cccnc1 (stereo not drawn) [Example 34]", 79),
    ("CN1C(=O)N(c2cccc(C(F)(F)F)c2)C2=C(C(=O)NCC2)[C@H]1c1ccc(C#N)cc1 [Example 6]", 80),
    ("CN1C(=O)N(c2cccc(C(F)(F)F)c2)C2=C(C(=O)NCC2)C1c1ccc(C#N)cc1-c1ccncn1 (stereo not drawn) [Example 35]", 100),
    ("CN1C(=O)N(c2cccc(C(F)F)c2)C2=C(C(=O)NCC2)[C@H]1c1ccc(C#N)cc1 [Example 8A]", 97),
    ("CN1C(=O)N(c2cccc(C(F)(F)F)c2)C2=C(C(=O)NCC2)[C@H]1c1ccc(C#N)cc1-c1cnco1 [Example 30A]", 85),
    ("N#Cc1ccc([C@H]2NC(=O)N(c3cccc(C(F)(F)F)c3)C3=C2C(=O)NCC3)cc1 [Example 1A]", 44),
    ("CN1CCC2=C(C1=O)C(c1ccc(C#N)cc1-c1cnn(C)c1)N(C)C(=O)N2c1cccc(C(F)(F)F)c1 (stereo not drawn) [Example 36]", 83),
    ("CN1CCC2=C(C1=O)C(c1ccc(C#N)cc1CO)N(C)C(=O)N2c1cccc(C(F)(F)F)c1 (stereo not drawn) [Example 38]", 91),
    ("CN1CCC2=C(C1=O)[C@@H](c1ccc(C#N)cc1)NC(=O)N2c1cccc(C(F)(F)F)c1 [Example 4A]", 34),
    ("CN1CCC2=C(C1=O)C(c1ccc(C#N)cc1-c1cnco1)N(C)C(=O)N2c1cccc(C(F)(F)F)c1 (stereo not drawn) [Example 37]", 90),
    ("CN1C(=O)N(c2cccc(C(F)(F)F)c2)C2=C(C(=O)NCC2)C1c1ccc(C#N)cc1S(C)(=O)=O (stereo not drawn) [Example 40]", 87),
]

====

# targetSystem: neutrophil elastase in human plasma (Homo sapiens (Human))
# Sequence (P08246 30-247): as above
# protocolDescription: Neutrophil elastase inhibitory activity in human plasma
# testSettings: human plasma assay (zymosan-stimulated blood plasma), substrate 250 μM, pH 7.5
pIC50: −log10 of the molar value.
Below, each entry is listed with its recorded pIC50.

# molecule, relationQualifier, pIC50
measured = [
    ("CNC(=O)CN1C(=O)N(c2cccc(C(F)(F)F)c2)C2=C(C(=O)NCC2)[C@H]1c1ccc(C#N)cc1 [Example 12A]", ">", 9.00),
    ("N#Cc1ccc(C2C3=C(CCNC3=O)N(c3cccc(C(F)(F)F)c3)C(=O)N2C(=O)NCCO)cc1 (stereo not drawn) [Example 17]", ">", 9.00),
    ("COCCNC(=O)CN1C(=O)N(c2cccc(C(F)(F)F)c2)C2=C(C(=O)NCC2)C1c1ccc(C#N)cc1 (stereo not drawn) [Example 12.4]", "=", 8.29),
    ("N#Cc1ccc(C2NC(=O)N(c3cccc(C(F)F)c3)C3=C2C(=O)NCC3)cc1 (racemic) [Example 2]", "=", 8.09),
    ("N#Cc1ccc(C2C3=C(CCNC3=O)N(c3cccc(C(F)(F)F)c3)C(=O)N2CC(=O)O)cc1 (stereo not drawn) [Example 10]", "=", 8.62),
    ("CN1CCC2=C(C1=O)C(c1ccc(C#N)cc1-c1cccnc1)N(C)C(=O)N2c1cccc(C(F)(F)F)c1 (stereo not drawn) [Example 36.1]", "=", 8.74),
]
